test system: 786-0; test: NCI tumour cell line growth inhibition, 48 h
The source made the active and inactive calls. No stated cut-off is given here; in the data, active = GI50 up to about 1.1 µM and inactive = higher.
quantity_name: GI50

| compound | experimental_value |
| --- | --- |
| Cc1cc2c(c(/C=N/Cc3ccccc3)c1)OC1(C=C2)Oc2ccccc2C(=O)N1C (stereo not given) | 29.4 µM (inactive) |
| CC(=O)OCCC[C@@H]1C(=C(C)C)CCC2[C@@]1(C)CC[C@@]1(C)C[C@](C)(CCC=C(C)C)CC[C@]21C (stereo not given in full) | > 100 µM (inactive) |
| N#CCCN(CCC#N)c1ccc(/C=C(/NC(=O)c2cc([N+](=O)[O-])ccc2Cl)C(=O)NN)cc1 | > 100 µM (inactive) |
| N#Cc1ccc(N2CCOCC2)cc1 | > 100 µM (inactive) |
| CC1=NN(c2cccc(Cl)c2)C2(C1=Cc1cccs1)C(Cl)C(=O)N2c1nc2ccccc2s1 (stereo not given) | 13.8 µM (inactive) |

###

tested on: K562; experiment: NCI tumour cell line growth inhibition, 48 h
Active and inactive are the calls of the source. Cut-off read from the data, not from the text of the source: active = GI50 up to about 1.1 µM and inactive = higher.
Classes used: YES for active, NO for inactive

| compound | qualitative_label |
| --- | --- |
| N/C(=N\O)N/N=C/c1ccc(C(F)(F)F)cc1 | NO |
| S=c1nc(Nc2ccc(Cl)cc2)c2c3c(sc2[nH]1)CCCC3 | NO |
| O=C(O)CCN(CCCCN(CCC(=O)O)CCC(=O)O)CCC(=O)O | NO |
| O=P(c1ccccc1)(c1ccccc1)N1O[C@@H](c2ccccc2)C=C[C@H]1c1ccccc1 | NO |
| O=C1C2=C(c3ccccc31)C(c1ccc(F)cc1)N1C(=O)CCSC1=N2 (stereo not given) | NO |
| O=C(/C=C/c1c(O)ccc2ccccc12)c1ccc([N+](=O)[O-])cc1 | NO |
| CC1=NNC(=O)C1C1CC(c2c[nH]c3ccccc23)=NN(C(N)=O)C1=O (stereo not given) | NO |
| O=C(N/N=C/c1cc(Cl)cc(Cl)c1O)c1ccccc1O | YES |
| O=c1c2ccccc2n2cnc3ccc(NCCNCCO)c1c32 | NO |
| C=C1C(=O)OC2CC3(C)OC3CC/C(C)=C/C(OC(C)=O)C12 (stereo not given) | NO |

###

test system: HOP-62; assay: NCI tumour cell line growth inhibition, 48 h
Calls of active or inactive are those of the source. No stated cut-off is given here; in the data, active = GI50 up to about 1.1 µM and inactive = higher.

| compound | GI50 |
| --- | --- |
| C=CCC(SC)C1=C(C)C(=O)c2ccccc21 (stereo not given) | > 10 µM (inactive) |
| Cc1ccc(NC(=O)c2cccc(OP(=O)(Nc3ccc(C)cc3)Nc3ccc(C)cc3)c2)cc1 | 28.7 µM (inactive) |
| CCOC(=O)CCC(NC(=O)c1ccc(Oc2nc3ccccc3nc2-c2ccccc2)cc1)C(=O)OCC (stereo not given) | 11.2 µM (inactive) |
| C=C1C(=O)OC2C=C(C)CC3C=C(CCC=C(C)CCC12)C(=O)O3 (stereo not given) | 114 µM (inactive) |
| CC(C)OC(=O)C1=C2c3ncccc3C(=O)N2[C@@H](Cl)[C@@H](Cl)[C@@H]1Cl | > 100 µM (inactive) |

###

test system: HCT-116; assay: NCI tumour cell line growth inhibition, 48 h
The source made the active and inactive calls. Cut-off read from the data, not from the text of the source: active = GI50 up to about 1.1 µM and inactive = higher. Peptide text beside a SMILES is read from it.
Classes used: active, inactive

| compound | qualitative_label |
| --- | --- |
| CC(C)CC(NC(=O)C(CC(C)C)NC(=O)C(Cc1c[nH]cn1)NC(=O)C(C)NC(=O)C(NC(=O)C(C)NC(=O)C(Cc1c[nH]c2ccccc12)NC(=O)C(CCC(=O)O)NC(=O)C(N)Cc1ccccc1)C(C)C)C(N)=O (stereo not given) (H-FEWAVAHLL-NH2; configuration not given here) | inactive |
| CC1CC2CC(=O)CC3(C1)C2CCCN3CCCO (stereo not given) | inactive |
| NC1=NC(NCC2(CO)CCC2)=CC(OCC2(CO)CCC2)N1 (stereo not given) | inactive |
| CO/N=C(\C)c1ccc(Nc2c3ccccc3nc3occc23)cc1 | active |
| Nc1ccc(S(=O)(=O)Nc2ccc(Nc3c4ccccc4nc4ccccc34)cc2)cc1 | active |

All figures here come from ChEMBL document CHEMBL1201862.
